Experiment: qHTS assay to identify small molecule antagonists of the thyroid receptor (TR) signaling pathway - cell viability counter screen (AID 743064); further: nearly all actives have a fitted effect of over 50% in size
Conditions: GH3.TRE-Luc viability, CellTiter-Fluor, 24 h; series mostly up to 70.3 µM
Results filed as inconclusive are left out. The source made the active and inactive calls. The call rests on the fitted dose curve; in most records, active means well fitted cell-killing curve with a large enough effect in the repeat runs; inconclusive means weak or mixed curves, or effect the other way; inactive means no such curve, though single readings can be large or run the other way.
Hi there, use one of these labels in your reply, thanks! yes (1) = active, no (0) = inactive

molecule	label_value
CCO[Si](CCCS)(OCC)OCC	no (0)
N[C@@H](COP(=O)(O)O)C(=O)O	no (0)
FC(F)(F)c1ccccc1-n1ccnc1	no (0)
Cc1cc2cc3c(C)cc(=O)oc3c(C)c2o1	no (0)
O=C1c2cccc3c2[C@H](CCC3)CN1[C@@H]1CN2CCC1CC2	yes (1)
On1nnc2ccccc21	no (0)

Inquiry: Lab log entry: CC(CO)c1ccccc1 (stereo not drawn) — outcome as called in the assay?
Reply text: no (0)

Inquiry: Test call for this molecule, please: `CCCCCCCCCCl`
Reply text: no (0)

* * *

Experiment: qHTS assay to test for compound auto fluorescence at 590 nm (red) in HepG2 cell free culture (AID 720684); further: on the % scale 0 is the no-effect control and ±100 the full control effect
Conditions: cell-free medium autofluorescence, red 540/590 nm; series mostly up to 91.3 µM
From the text: U.S. Tox21 Program National Center for Advancing Translational Sciences [NCATS] NIH Chemical Genomics Center [NCGC] U.S. Environmental Protection Agency [EPA] National Institutes of Environmental Health Sciences [NIEHS] National Toxicology Program [NTP] U.S. Food and Drug Administration [FDA] Tox21 Assay Overview: Compound auto fluorescence often interferes with screening of the compound library against various biological targets and signaling pathways. […] This assay includes the red fluorescence data. […]
The source made the active and inactive calls. Calls come from the whole dose curve; as a rule, active = well fitted curve in the direction sought with a large enough effect in the repeat runs; inconclusive = weak or mixed curves; inactive = flat fitted curve, though single readings scatter.
quantity_kind: fluorescence, % of Rose Bengal

Check out these entries, answers already filled in.
compound	quantity_kind	recorded_value
C[C@H](N)[C@H](O)c1cccc(O)c1	fluorescence, % of Rose Bengal	-0.249% [at 18.6 µM] (inactive)
O=S(=O)(O)c1ccc2cc(O)c(S(=O)(=O)O)cc2c1	fluorescence, % of Rose Bengal	inactive
CCCCCCN	fluorescence, % of Rose Bengal	inactive
CN(C)C(=O)CNC(=O)Cc1ccccc1	fluorescence, % of Rose Bengal	inactive
COc1ccc(C2CNC(=O)C2)cc1OC1CCCC1 (stereo not given)	fluorescence, % of Rose Bengal	0.472% [at 18.6 µM] (inactive)

Inquiry: Quick check: fluorescence, % of Rose Bengal of O=C(CS(=O)Cc1ccco1)NC/C=C\COc1cc(CN2CCCCC2)ccn1 (stereo not given) ?
Reply text: inactive

* * *

Test: Human pregnane X receptor (PXR) small molecule agonists, qHTS cell viability counter screen (AID 1346977); further: on the % scale 0 is the no-effect control and ±100 the full control effect; nearly all actives have a fitted effect of over 50% in size
Settings: PXR-Luc HepG2 viability, CellTiter-Fluor, 24 h; series mostly up to 92.4 µM
Results filed as inconclusive are left out. Calls of active or inactive are those of the source. Calls come from the whole dose curve; as a rule, active = well fitted cell-killing curve with a large enough effect in the repeat runs; inconclusive = weak or mixed curves, or effect the other way; inactive = flat fitted curve, though single readings scatter.
quantity_kind: activity change, negative = cytotoxicity

Worked set:
compound	activity change, negative = cytotoxicity
C=C(C)C(=O)OCCN(CC)CC	inactive
CCC(C)(CCC(C)C)C(=O)O (configuration not stated)	inactive
Cc1cc(NC(=O)C2=C(O)c3ccccc3S(=O)(=O)N2C)no1	inactive
COCCOCCOCCOCCOCCO	inactive
O=C1O[C@@H]2[C@@H](O)[C@H](O)O[C@@H]2[C@H]1O	inactive
CCn1ccc(NS(=O)(=O)c2ccc(N)cc2)nc1=O	inactive

Inquiry: Need activity change, negative = cytotoxicity of `CCOC(=O)[C@H](CCc1ccccc1)N[C@@H](C)C(=O)N1C(=O)N(C)C[C@H]1C(=O)O` , thanks.
Reply text: inactive

Inquiry: Please look up its activity change, negative = cytotoxicity: `CC(C)C(=O)OCc1cccc(OC(=O)[C@@H]2N3C(=O)[C@@H](NC(=O)Cc4ccccc4)[C@H]3SC2(C)C)c1`
Reply text: inactive

Inquiry: Can you share its activity change, negative = cytotoxicity? I mean this compound: `CC(C)OC(=O)CCCCC(=O)OC(C)C`
Reply text: inactive

Inquiry: Look at this compound and give its reported activity change, negative = cytotoxicity. `BrCc1cccc(Oc2ccccc2)c1`
Reply text: inactive

Inquiry: Item `O=C(CCN1CCN(CCO)CC1)N1c2ccccc2Sc2ccc(C(F)(F)F)cc21` has what recorded activity change, negative = cytotoxicity?
Reply text: inactive

Inquiry: // returns reported activity change, negative = cytotoxicity for input `COc1ccc(-c2cc(=O)c3c(O)cc(O[C@@H]4O[C@H](CO[C@@H]5O[C@@H](C)[C@H](O)[C@@H](O)[C@H]5O)[C@@H](O)[C@H](O)[C@H]4O)cc3o2)cc1O`
Reply text: inactive

Inquiry: Find the recorded activity change, negative = cytotoxicity belonging to `CC(C)=O` and report it.
Reply text: inactive

Inquiry: Please look up its activity change, negative = cytotoxicity: `COc1nccnc1NS(=O)(=O)c1ccc(N)cc1`
Reply text: inactive

Inquiry: Could you tell me which activity change, negative = cytotoxicity is on file for `NS(=O)(=O)c1ccc(NC(=O)CCC(=O)O)cc1` ?
Reply text: inactive

Inquiry: Give its activity change, negative = cytotoxicity value. Item: `O=S(=O)(O)c1ccc2cc(O)c(S(=O)(=O)O)cc2c1`
Reply text: inactive

Inquiry: Using the record for `O=C(OCC1(COC(=O)c2cccnc2)CCCC(COC(=O)c2cccnc2)(COC(=O)c2cccnc2)C1O)c1cccnc1` , report its activity change, negative = cytotoxicity.
Reply text: inactive

Inquiry: Consider the compound shown here: `Cc1nc2n(c(=O)c1CCN1CCC(c3noc4cc(F)ccc34)CC1)CCC[C@H]2O` What is its recorded activity change, negative = cytotoxicity?
Reply text: -2.46% [at 19 µM] (inactive)

Inquiry: Please give the measured activity change, negative = cytotoxicity for this compound: `CCOc1cc(NC(C)=O)ccc1C(=O)OC`
Reply text: inactive

Inquiry: // lookup activity change, negative = cytotoxicity for `CCOC(=O)c1ccc(OC(=O)CCCCCN=C(N)N)cc1`
Reply text: inactive

Inquiry: Requested field: activity change, negative = cytotoxicity. Item: `O=C1c2ccccc2C(=O)C1c1ccccc1`
Reply text: inactive

Inquiry: Which activity change, negative = cytotoxicity value is on record for COC(=O)C1CC(=O)C(C(=O)OC)CC1=O (configuration not stated) ?
Reply text: 1.52% [at 8.39 µM] (inactive)

* * *

Assay: qHTS assay for small molecules that induce genotoxicity in human embryonic kidney cells expressing luciferase-tagged ATAD5 (AID 651632); further: nearly all actives have a fitted effect of over 15% in size; on activation: on the % scale 0 is the no-effect control and ±100 the full control effect
Conditions: HEK293T ATAD5-luciferase induction, 16 h; series mostly up to 83.3 µM
Results filed as inconclusive are left out. The source made the active and inactive calls. The call rests on the fitted dose curve; in most records, active means well fitted activation curve with a large enough effect in the repeat runs; inconclusive means weak or mixed curves; inactive means no such curve, though single readings can be large or run the other way.
One label from this list, please: active, inactive

Here are 6 molecules together with their reported answers.
molecule	label_value
CCC(CC)CO	inactive
c1ccc2c(c1)ccc1c3ccccc3ccc21	active
CC1=C(C(=O)O)N2C(=O)[C@@H](NC(=O)[C@H](N)c3ccc(O)cc3)[C@H]2SC1	inactive
Cc1ccc(S(=O)(=O)O)c(C)c1	inactive
O=S(=O)(O)c1ccc2cc(O)c(S(=O)(=O)O)cc2c1	inactive
CCOc1cc(NC(C)=O)ccc1C(=O)OC	inactive

// switching to the query molecule
Inquiry: Kindly provide the recorded test outcome for the following molecule: `OC[C@H](Cc1cccc(O)c1)[C@H](CO)Cc1cccc(O)c1`
Reply text: inactive

* * *

Test: qHTS assay to identify small molecule agonists of the TGF-beta/Smad signaling pathway (AID 1346859); further: on the % scale 0 is the no-effect control and ±100 the full control effect
Details: SBE-bla HEK293T, TGF-beta/Smad beta-lactamase reporter, 5 h; series mostly up to 76.8 µM
Results filed as inconclusive are left out. Active and inactive are the calls of the source. Calls follow the shape of the dose curve; as a rule, active = well fitted activation curve with a large enough effect in the signal ratio in the repeat runs (not every such curve was filed as active); inconclusive = weak or mixed curves; inactive = flat fitted curve, though single readings scatter; the % refers to the signal ratio.
quantity_kind: activation

// worked examples, activation included
CC(C)N(c1ccccc1)C(C)C inactive
O=C(OCC(COC(=O)c1cccnc1)(COC(=O)c1cccnc1)COC(=O)c1cccnc1)c1cccnc1 inactive
NS(=O)(=O)c1ccc(NC(=O)CCC(=O)O)cc1 inactive
COCCOCCOCCOCCOCCO inactive
CC(=O)NCc1c(I)c(NC(C)=O)c(I)c(C(=O)O)c1I inactive

With those in mind, consider the next compound.
Inquiry: Which activation is reported for this compound? `CCCCCCCC/C=C\CCCCCCCC(=O)OCCCC`
Reply text: -1.96% [at 15.8 µM] (inactive)

* * *

Test: A CellTox Green Cytotoxicity Assay to monitor cytotoxicity in HEK293 cells - 24 hour (AID 1224875); further: on the % scale 0 is the no-effect control and ±100 the full control effect; nearly all actives have a fitted effect of over 45% in size
Conditions: CellTox Green fluorescence, active compounds read high; series mostly up to 76.8 µM
Inconclusive results are not listed. Active and inactive are the calls of the source. Calls follow the shape of the dose curve; as a rule, active = well fitted activation curve with a large enough effect in the repeat runs; inconclusive = weak or mixed curves; inactive = flat fitted curve, though single readings scatter.
quantity_kind: activity change

compound	activity change
CC(=C(CCOC(=O)C(C)C)SSC(CCOC(=O)C(C)C)=C(C)N(C=O)Cc1cnc(C)nc1N)N(C=O)Cc1cnc(C)nc1N	inactive
CC(C(=O)O)c1ccc2c(c1)CC(=O)c1ccccc1S2 (stereo unspecified)	inactive
Cc1cc(C(C)(C)C)c(O)c(C)c1CC1=NCCN1	inactive
O=C1O[C@@H]2[C@@H](O)[C@H](O)O[C@@H]2[C@H]1O	inactive
O=C(CS(=O)Cc1ccco1)NC/C=C\COc1cc(CN2CCCCC2)ccn1 (stereo unspecified)	inactive

Inquiry: Could you tell me which activity change is on file for CCCCC(CC)COCCO (stereo unspecified) ?
Reply text: inactive

Inquiry: What value of measured activity change is listed for `Cc1cc(NC(=O)C2=C(O)c3ccccc3S(=O)(=O)N2C)no1` ?
Reply text: inactive
